- TEST TARGET: T1, human CD25 (NP_000408.1) (Met 1-Cys 213) C-terminally fused with 6-histidine tag (human, UniProt P01589 22-213)
- T1 construct: range 1-213; Expressed in CHO-K1 cells; also called human CD25-his
- T1 sequence: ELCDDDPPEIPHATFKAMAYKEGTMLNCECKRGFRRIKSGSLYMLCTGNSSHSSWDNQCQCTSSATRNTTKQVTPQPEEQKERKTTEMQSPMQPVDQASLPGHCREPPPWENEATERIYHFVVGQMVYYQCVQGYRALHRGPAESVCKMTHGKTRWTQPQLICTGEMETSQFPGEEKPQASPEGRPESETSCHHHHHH
- ASSAY COMMENT: SPR (BIAcore X100), human CD25-his captured by anti-histidine antibody, antibody as analyte, 1:1 model
Reported kon is given for each of the following binders.
API: value field is a number in M⁻¹ s⁻¹; no unit string.

Examples with their reported kon follow.
- humanized antibody 2046-18H1L1-m2 (antibody, human IgG1, kappa, V domains shown) VH: EVQLQESGPGLVKPSQTLSLTCTVSGYSITSDYAWNWIRQPPGKGLEWIGYISYSGITIYNPSLKSRVTISRDTSKNQFSLKLSSVTAADTAVYYCARWLLQIYYAMDYWGQGTLVTVSS VL: EIVLTQSPGTLSLSPGERATLSCSSSQSLVHSNGNTYLHWYQQKPGQAPRLLIYKVSNRFSGIPDRFSGSGSGTDFTLTISRLEPEDFAVYYCSQSTHVPLTFGQGTKLEIKR: 560000
- humanized antibody 2047-3H1L2 (antibody, human IgG1, kappa, V domains shown) VH: EVQLVQSGAEVKKPGATVKISCKTSGYTFTDYVISWVQQAPGKGLEWMGEIYPGSGSTYYNEKFKGRVTITADISTNTAYMELSSLRSEDTAVYYCASINFDYWGQGTLVTVSS VL: EIVMTQSPATLSLSPGERATLSCRASQSISDYLHWYQQKPGQAPRLLIKYASQSISGIPARFSGSGSGSDFTLTISSLQPEDVAVYYCQSGHSFPYTFGQGTKLEIKR: 348000
- humanized antibody 2047-10H2L2 (antibody, human IgG1, kappa, V domains shown) VH: EVQLVQSGAEVKKPGATVKISCKGSGYTFTDYAMHWVQQAPGKGLEWMGVISTYSGNTNYNQKFKGRVTITVDKSTSTAYMELSSLRSEDTAVYYCARSYGNYPFDYWGQGTLVTVSS VL: DIQMTQSPSSLSASVGDRVTITCKASQDITSYLSWFQQKPGKAPKTLIYRANRLVDGVPSRFSGSGSGQDYTLTISSLQPEDMATYYCLQYDEFPYTFGQGTKLEIKR: 461000

--- query ---
Challenge: In one line, give reported kon of the entry humanized antibody 2046-36H1L1 (antibody, human IgG1, kappa, V domains shown) VH: EIQLVQSGSELKKPGASVKVSCKASGYTFTTAGMQWVRQAPGQGLEWMGWINTHSGVPKYAEDFKGRFVFSLDTSVSTAYLQISSLKAEDTAVYYCASDYAFGYWGQGTLVTVSS VL: DVVMTQSPLSLPVTLGQPASISCKSSQSLLYSNGKTYLYWLQQRPGQSPRRLIYLVSKLDSGVPDRFSGSGSGTDFTLKISRVEAEDLGVYYCVQGTHFPYTFGQGTKLEIKR .
Response given: 3.96e+06
